meta.source: the supplement of paper PMC9112550

- Test system: Escherichia coli TOP10
- test: shrunken log2 fold change of peptide-encoding DNA abundance (4.5 h post-induction vs induction); higher = less antimicrobial activity (less host growth inhibition)
- setup conditions: time post-induction: 4.5 h; library: site-saturation at positions 5, 18, 19, 20

residues: RRIRYRPPRLPRPRPRPVCLPRP
tested target: Escherichia coli TOP10
shrunken log2 fold change: -0.365
//
residues: RRIRLRPPRLPRPRPRPAKEPRP
tested target: Escherichia coli TOP10
shrunken log2 fold change: -0.049
//
residues: RRIRRRPPRLPRPRPRPVFGPRP
tested target: Escherichia coli TOP10
shrunken log2 fold change: 0.329
//
residues: RRIRTRPPRLPRPRPRPWTLPRP
tested target: Escherichia coli TOP10
shrunken log2 fold change: -0.0728
//
residues: RRIRVRPPRLPRPRPRPVTMPRP
tested target: Escherichia coli TOP10
shrunken log2 fold change: -0.196
//
residues: RRIRCRPPRLPRPRPRPEWWPRP
tested target: Escherichia coli TOP10
shrunken log2 fold change: -0.00726
//
residues: RRIRHRPPRLPRPRPRPVKSPRP
tested target: Escherichia coli TOP10
shrunken log2 fold change: -0.0219
//
residues: RRIRGRPPRLPRPRPRPSKTPRP
tested target: Escherichia coli TOP10
shrunken log2 fold change: 0.558
//
residues: RRIRMRPPRLPRPRPRPYIVPRP
tested target: Escherichia coli TOP10
shrunken log2 fold change: -0.00174
//
residues: RRIRIRPPRLPRPRPRPAFDPRP
tested target: Escherichia coli TOP10
shrunken log2 fold change: -0.295
//
residues: RRIRPRPPRLPRPRPRPFPCPRP
tested target: Escherichia coli TOP10
shrunken log2 fold change: -0.0101
//
residues: RRIRHRPPRLPRPRPRPTIIPRP
tested target: Escherichia coli TOP10
shrunken log2 fold change: -0.494
//
residues: RRIRVRPPRLPRPRPRPHCGPRP
tested target: Escherichia coli TOP10
shrunken log2 fold change: -0.309
//
residues: RRIRLRPPRLPRPRPRPHHHPRP
tested target: Escherichia coli TOP10
shrunken log2 fold change: -0.6
//
residues: RRIRSRPPRLPRPRPRPHHIPRP
tested target: Escherichia coli TOP10
shrunken log2 fold change: -1.12
//
residues: RRIRKRPPRLPRPRPRPNDIPRP
tested target: Escherichia coli TOP10;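 also: peptides expressed intracellularly from a pBAD plasmid library in pooled LB shake-flask culture, induced with 0.3% L-arabinose, DNA abundance read by NGS, three biological replicates, DESeq2 with apeglm shrinkage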
shrunken log2 fold change: 0.0543
